The following binders are listed with their measured EC50 values.
Molecular target: T1, human Adhesion G protein-coupled receptor E2 (ADGRE2) (human, UniProt Q9UHX3 24-823)
T1 construct: No signal peptide limits are stated; also called EMR2; CD312
T1 sequence: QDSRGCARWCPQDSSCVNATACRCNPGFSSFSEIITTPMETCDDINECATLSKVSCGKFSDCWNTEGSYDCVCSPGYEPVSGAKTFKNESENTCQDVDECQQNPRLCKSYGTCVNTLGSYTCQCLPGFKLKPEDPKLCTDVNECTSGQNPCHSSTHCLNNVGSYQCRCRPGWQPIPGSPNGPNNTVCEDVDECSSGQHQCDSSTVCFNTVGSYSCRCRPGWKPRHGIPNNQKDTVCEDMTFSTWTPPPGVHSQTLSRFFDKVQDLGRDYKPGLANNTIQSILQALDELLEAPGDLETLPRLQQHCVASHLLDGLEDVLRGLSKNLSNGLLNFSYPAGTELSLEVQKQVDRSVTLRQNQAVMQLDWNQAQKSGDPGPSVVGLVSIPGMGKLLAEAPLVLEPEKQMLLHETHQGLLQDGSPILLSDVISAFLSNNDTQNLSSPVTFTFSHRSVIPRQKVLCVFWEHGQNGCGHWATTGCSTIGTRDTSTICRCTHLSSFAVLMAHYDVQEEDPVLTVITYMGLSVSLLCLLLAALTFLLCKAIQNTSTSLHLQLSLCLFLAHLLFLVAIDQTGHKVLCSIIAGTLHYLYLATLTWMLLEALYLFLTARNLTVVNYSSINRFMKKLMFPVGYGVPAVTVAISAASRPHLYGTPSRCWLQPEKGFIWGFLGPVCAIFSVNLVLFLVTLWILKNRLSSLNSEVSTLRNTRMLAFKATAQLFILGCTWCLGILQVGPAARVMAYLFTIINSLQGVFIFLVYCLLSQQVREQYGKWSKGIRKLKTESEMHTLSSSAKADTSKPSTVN
Assay: flow cytometry, scFv titration on EL4 cells overexpressing ADGRE2
quantity: EC50 (nM)

1) ADGRE2-A scFv (scFv, Recombinant humanized scFv; Any tag is not described) scFv: QVQLQQSGAEVAKPGASVKLSCKASGYTFTNYWMQWIKQAPGQGLEWIGAVYPGDGDTRHTQKFKGKATLTADKSTSTAYMEVSSLRSEDTAVYYCARGFTAYGMDYWGQGTTVTVSSGGGGSGGGGSGGGGSEIVLTQSPATMSASPGERVTMSCSASSSVSYMHWYQQKSGQSPKRWIYDTSKLASGVPARFSGSGSGTDYTFTISSMEPEDFATYYCQQWSSNPLTFGGGTKLEIK; 93.8
2) ADGRE2-E scFv (scFv, Recombinant humanized scFv; Any tag is not described) scFv: QVQLQQSGAEVKKPGASVKVSCKASGYTFTNYWMQWVRQAPGQGLEWIGAVYPGDGDTRHTQKFKGRVTMTADKSTSTVYMELSSLRSEDTAVYYCARGFTAYGMDYWGQGTLVTVSSASTGGGGSGGGGSGGGGSQIVLTQSPATLSLSPGERATLTCSASSSVSYMHWYQQKPGLSPKRWIYDTSKLASGVPDRFSGSGSGTDYTFTIRRLEPEDFATYYCQQWSSNPLTFGQGTKVEIK; 10.6
3) ADGRE2-C scFv (scFv, Recombinant humanized scFv; Any tag is not described) scFv: QVQLQQSGAEVKKPGASVKLSCKASGYTFTNYWMQWVRQAPGQGLEWIGAVYPGDGDTRYTQKFQGRATLTADTSTSTVYMEVSSLRSEDTAVYYCARGFTAYGMDYWGQGTTVTVSSGGGGSGGGGSGGGGSEIVLTQSPATMSASPGERVTMSCSASSSVSYMHWYQQKSGLSPKRWIYDTSKLASGVPDRFSGSGSGTDYTFTISRMEPEDFATYYCQQWSSNPLTFGGGTKLEIK; 53.2
4) ADGRE2-F scFv (scFv, Recombinant humanized scFv; Any tag is not described) scFv: QVQLQQSGAEVKKPGASVKLSCKASGYTFTNYWMQWIRQAPGQGLEWIGAVYPGDGDTRYTQKFQGRATLTADTSTSTAYMEVSSLRSEDTAVYYCARGFTAYGMDYWGQGTTVTVSSGGGGSGGGGSGGGGSEIVLTQSPATLSASPGERVTMSCSASSSVSYMHWYQQKPGLAPRRWIYDTSKLASGVPDRFSGSGSGTDYTFTISRMEPEDFATYYCQQWSSNPLTFGGGTKLEIK; 16.4
5) ADGRE2-B scFv (scFv, Recombinant humanized scFv; Any tag is not described) scFv: QVQLQQSGAEVKKPGASVKLSCKASGYTFTNYWMQWIRQAPGQGLEWIGAVYPGDGDTRYTQKFQGRATLTADTSISTAYMEVSRLRSDDTAVYYCARGFTAYGMDYWGQGTTVTVSSGGGGSGGGGSGGGGSEIVLTQSPATMSASPGERVTMSCSASSSVSYMHWYQQKSGLSPKRWIYDTSKLASGVPDRFSGSGSGTDYTFTISRMEPEDFATYYCQQWSSNPLTFGGGTKLEIK; 55.3
6) ADGRE2-D scFv (scFv, Recombinant humanized scFv; Any tag is not described) scFv: QVQLQQSGAEVKKPGASVKVSCKASGYTFTNYWMQWVRQAPGQGLEWMGAVYPGDGDTRHTQKFKGRVTMTRDTSTSTVYMELSSLRSEDTAVYYCARGFTAYGMDYWGQGTLVTVSSASTGGGGSGGGGSGGGGSEIVLTQSPATLSLSPGERATLSCSASSSVSYMHWYQQKPGLAPRLLIYDTSKLASGIPDRFSGSGSGTDFTLTISRLEPEDFAVYYCQQWSSNPLTFGQGTKVEIK; 16.4
